The values you see were collected from patent US20250127912A1.

List of Serum Stability at N/P2 values.
procedure text: Serum stability of miRNA mimic M30m3 alone or with cationic peptide/hybrid polymer in 5% human serum (TBE-urea gel)
condition info: M30m3 with polymer at N/P charge ratio 2, 37 C, calculated based on first order decay comparing two time points
Just the number in h, nothing appended.

// solved cases for Serum Stability at N/P2 follow
compound | Serum Stability at N/P2 / h
NCCCNCCCCNCCCN [Spermine, reference compound] | 12.98
N=C(N)NCCC[C@H](NC(=O)[C@H](CCCNC(=N)N)NC(=O)[C@H](CCCNC(=N)N)NC(=O)[C@H](CCCNC(=N)N)NC(=O)[C@H](CCCNC(=N)N)NC(=O)[C@H](CCCNC(=N)N)NC(=O)[C@H](CCCNC(=N)N)NC(=O)[C@H](CCCNC(=N)N)NC(=O)[C@H](CCCNC(=N)N)NC(=O)[C@H](CCCNC(=N)N)NC(=O)[C@H](CCCNC(=N)N)NC(=O)[C@H](CCCNC(=N)N)NC(=O)[C@@H](N)CS)C(=O)N[C@@H](CS)C(=O)O [CPolyArg12C] | 18.1
NC(N)=NCCC[C@H](NC(=O)[C@H](CCCN=C(N)N)NC(=O)[C@H](CCCN=C(N)N)NC(=O)[C@H](CCCN=C(N)N)NC(=O)[C@H](CCCN=C(N)N)NC(=O)[C@@H](N)CCCN=C(N)N)C(=O)O [PolyArg6, RRRRRR] | 22.23

INPUT: Serum Stability at N/P2 lookup needed for N=C(N)NCCC[C@H](NC(=O)[C@H](CCCNC(=N)N)NC(=O)[C@H](CCCNC(=N)N)NC(=O)[C@H](CCCNC(=N)N)NC(=O)[C@H](CCCNC(=N)N)NC(=O)[C@H](CCCNC(=N)N)NC(=O)[C@H](CCCNC(=N)N)NC(=O)[C@H](CCCNC(=N)N)NC(=O)[C@H](CCCNC(=N)N)NC(=O)[C@H](CCCNC(=N)N)NC(=O)[C@H](CCCNC(=N)N)NC(=O)[C@@H](N)CCCNC(=N)N)C(=O)N[C@@H](CS)C(=O)O [PolyArg12C] , thanks.
OUTPUT: 31.12

INPUT: # input compound: N=C(N)NCCCCN [Agmatine, reference compound] ; wanted: its Serum Stability at N/P2
OUTPUT: 17.33

INPUT: Fill blank: measured Serum Stability at N/P2 of the compound N=C(N)NCCC[C@H](N)C(=O)O [Arginine, reference compound] is ____.
OUTPUT: 12.26
